# Tested on: VanB vancomycin-resistant E. faecium (10)
# ASSAY REMARKS: MIC broth microdilution, VanB E. faecium
# CONDITION DESCRIPTION: E. faecium, VanB (10)
Consider the following compounds; for each one, report its MIC 90%.
Answers are plain numbers, in µg/mL.

>>> reported_measurement("CCCCCCCCCCNCCNC1(C)CC(OC2C(Oc3c4cc5cc3Oc3ccc(cc3Cl)C(O)C3NC(=O)C(NC(=O)C5NC(=O)C(CC(N)=O)NC(=O)C(NC(=O)C(CC(C)C)NC)C(O)c5ccc(c(Cl)c5)O4)c4ccc(O)c(c4)-c4c(cc(O)c(CNCCOCCOCC[N+](C)(C)C)c4O)C(C(=O)O)NC3=O)OC(CO)C(O)C2O)OC(C)C1O (stereo not drawn) [Compound 1]")
0.03
>>> reported_measurement("CNC(CC(C)C)C(=O)NC1C(=O)NC(CC(N)=O)C(=O)NC2C(=O)NC3C(=O)NC(C(=O)NC(C(=O)O)c4cc(O)c(CNCCOCCOCCN)c(O)c4-c4cc3ccc4O)C(O)c3ccc(c(Cl)c3)Oc3cc2cc(c3OC2OC(CO)C(O)C(O)C2OC2CC(C)(NCc3ccc(OCc4ccc(Cl)c(Cl)c4)cc3)C(O)C(C)O2)Oc2ccc(cc2Cl)C1O (stereo not drawn) [Compound 28]")
0.06

Hi there! I need MIC 90% for each item below, if you can.
1. CNC(CC(C)C)C(=O)NC1C(=O)NC(CC(N)=O)C(=O)NC2C(=O)NC3C(=O)NC(C(=O)NC(C(=O)NCCOCCOCCN)c4cc(O)cc(O)c4-c4cc3ccc4O)C(O)c3ccc(c(Cl)c3)Oc3cc2cc(c3OC2OC(CO)C(O)C(O)C2OC2CC(C)(NCc3ccc(-c4ccc(Cl)cc4)cc3)C(O)C(C)O2)Oc2ccc(cc2Cl)C1O (stereo not drawn) [Compound 9]
2. CNC(CC(C)C)C(=O)NC1C(=O)NC(CC(N)=O)C(=O)NC2C(=O)NC3C(=O)NC(C(=O)NC(C(=O)NCCOCCOCCN)c4cc(O)cc(O)c4-c4cc3ccc4O)C(O)c3ccc(c(Cl)c3)Oc3cc2cc(c3OC2OC(CO)C(O)C(O)C2OC2CC(C)(NCc3ccc(OCc4ccc(Cl)c(Cl)c4)cc3)C(O)C(C)O2)Oc2ccc(cc2Cl)C1O (stereo not drawn) [Compound 27]
3. CNC(CC(C)C)C(=O)NC1C(=O)NC(CC(N)=O)C(=O)NC2C(=O)NC3C(=O)NC(C(=O)NC(C(=O)O)c4cc(O)c(CNCCOCCOCCN(C)C)c(O)c4-c4cc3ccc4O)C(O)c3ccc(c(Cl)c3)Oc3cc2cc(c3OC2OC(CO)C(O)C(O)C2OC2CC(C)(NCc3ccc(-c4ccc(Cl)cc4)cc3)C(O)C(C)O2)Oc2ccc(cc2Cl)C1O (stereo not drawn) [Compound 12]
4. CNC(CC(C)C)C(=O)NC1C(=O)NC(CC(N)=O)C(=O)NC2C(=O)NC3C(=O)NC(C(=O)NC(C(=O)O)c4cc(O)c(CNCCOCCOCCN)c(O)c4-c4cc3ccc4O)C(O)c3ccc(c(Cl)c3)Oc3cc2cc(c3OC2OC(CO)C(O)C(O)C2OC2CC(C)(NCc3ccc(-c4ccc(Cl)cc4)cc3)C(O)C(C)O2)Oc2ccc(cc2Cl)C1O (stereo not drawn) [Compound 11]

Result:
[0.12, 0.03, 0.12, 0.12]
